biological target: CYP2C8 (Homo sapiens, UniProt P10632); test: N-in-one CYP inhibition assay in human liver microsomes; type of inhibition
Sequence (P10632 whole entry): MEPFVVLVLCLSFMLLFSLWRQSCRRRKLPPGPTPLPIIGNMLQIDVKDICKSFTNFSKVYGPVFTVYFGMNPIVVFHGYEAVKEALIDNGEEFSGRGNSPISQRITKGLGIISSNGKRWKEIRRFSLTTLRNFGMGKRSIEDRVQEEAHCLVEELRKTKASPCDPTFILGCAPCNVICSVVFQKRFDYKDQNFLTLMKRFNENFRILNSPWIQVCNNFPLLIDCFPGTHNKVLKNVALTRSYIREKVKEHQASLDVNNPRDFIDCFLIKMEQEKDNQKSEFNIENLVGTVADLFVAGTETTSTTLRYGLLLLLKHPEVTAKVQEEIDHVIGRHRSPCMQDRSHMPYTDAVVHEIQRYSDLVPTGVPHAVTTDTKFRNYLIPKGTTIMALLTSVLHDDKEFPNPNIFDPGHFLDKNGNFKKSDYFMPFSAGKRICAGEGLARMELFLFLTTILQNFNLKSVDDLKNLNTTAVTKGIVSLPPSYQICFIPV
observedProperty: IC50 (µM)
Express the result in µM but write the number alone.

Entry OCCOc1ccc(/C(=C(/CCCl)c2ccccc2)c2ccccc2)cc1 : reported IC50 = ?
36.4
